Biological target: Peroxisome proliferator-activated receptor alpha (Homo sapiens)
Sequence (whole entry): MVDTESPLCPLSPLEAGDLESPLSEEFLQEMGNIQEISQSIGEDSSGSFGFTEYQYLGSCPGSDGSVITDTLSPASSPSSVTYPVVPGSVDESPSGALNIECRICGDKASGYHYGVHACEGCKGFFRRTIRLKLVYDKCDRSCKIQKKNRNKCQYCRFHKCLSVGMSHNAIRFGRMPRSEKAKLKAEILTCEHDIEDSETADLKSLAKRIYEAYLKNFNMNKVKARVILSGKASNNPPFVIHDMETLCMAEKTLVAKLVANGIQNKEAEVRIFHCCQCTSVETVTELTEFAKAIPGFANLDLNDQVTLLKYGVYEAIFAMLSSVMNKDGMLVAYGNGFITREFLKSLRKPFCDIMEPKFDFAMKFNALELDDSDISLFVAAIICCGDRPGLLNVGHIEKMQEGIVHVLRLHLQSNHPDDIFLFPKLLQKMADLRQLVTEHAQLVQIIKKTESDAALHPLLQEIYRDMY
Assay: Activity at PPARalpha by luciferase reporter gene transactivation assay in COS7 cells relative to WY-14643 at 10 uM
Format: functional, cell-based
Details: COS-7
reported_endpoint: Activity (%)
Answers are plain numbers, in %.

[
  {
    "structure_smiles_string": "CCCc1cc(C(F)(F)F)ncc1OCCCOc1ccc(OCC(=O)O)c(C)c1",
    "display_unit": "%",
    "Activity": 136
  },
  {
    "structure_smiles_string": "CCCc1cc(C(F)(F)F)ccc1OCCCOc1ccc(OCC(=O)O)c(C)c1",
    "display_unit": "%",
    "Activity": 40
  },
  {
    "structure_smiles_string": "CCCc1c(OCCCOc2ccc(OCC(=O)OC)cc2)cnc(C(C)=O)c1O",
    "display_unit": "%",
    "Activity": 64
  }
]

Can you give me Activity for all of these, one by one?
1. CCCc1c(OCCCOc2ccc(OCC(=O)OC)cc2)ccc(C(C)=O)c1O
2. Cc1cc(SCc2sc(-c3ccc(C(F)(F)F)cc3)nc2C)ccc1OCC(=O)O
3. CCCc1cc(C(F)(F)F)ccc1OCCCOc1ccc(OCC(=O)OC)c(C)c1
4. CCCc1cc(C(F)(F)F)ccc1OCCCOc1ccc(OCC(=O)OC)cc1

# output
32
452
85
49

Where do the numbers come from? From ChEMBL document CHEMBL1146916.
